# TARGET OF ASSAY: HiBiT-SOCS2 fusion in HeLa cells (Homo sapiens)
# Construct: encoding SOCS2 (32–198) in pBiT3.1-N expression vector; expressed in transfected cells; host or cells: HeLa
# Sequence (O14508 32-198): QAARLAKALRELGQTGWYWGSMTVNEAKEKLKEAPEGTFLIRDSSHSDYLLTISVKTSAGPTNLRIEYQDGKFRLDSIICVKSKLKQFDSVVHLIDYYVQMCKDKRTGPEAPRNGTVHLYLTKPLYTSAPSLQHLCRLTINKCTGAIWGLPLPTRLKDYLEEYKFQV
# Sequence (Q15370 whole entry, further chain, the tested form may be a part): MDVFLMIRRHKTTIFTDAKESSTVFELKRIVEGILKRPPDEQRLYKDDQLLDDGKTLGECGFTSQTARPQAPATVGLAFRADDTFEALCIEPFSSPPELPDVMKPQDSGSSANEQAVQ
# Sequence (Q15369 whole entry, further chain, the tested form may be a part): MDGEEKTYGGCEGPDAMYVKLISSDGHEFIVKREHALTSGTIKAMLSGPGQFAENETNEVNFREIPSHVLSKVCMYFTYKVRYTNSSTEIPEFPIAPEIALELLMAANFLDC
# PROTOCOL: Split-NanoLuc CETSA, live-cell mode
# Assay type: cell-based
# CONDITION INFO: Prodrug screen CETSA, live HeLa cells, 50 μM, 20 h, Mean n = 3
Binary classification by ΔT, with 2 oC as an inclusive lower bound for criterion met; all other cases are criterion not met.

The examples below pair each entry with its known result.
MOLECULE	TARGET OF ASSAY	CLASS NAME
COC(=O)[C@H](C)NP(=O)(Oc1ccc(C[C@H](NC(=O)Cc2ccc(F)cc2)C(=O)NCc2cccc(NC(=O)CCl)c2)cc1)Oc1cccc2ccccc12 (some centres unmarked)	HiBiT-SOCS2 fusion in HeLa cells (Homo sapiens)	criterion not met
CC(C)OC(=O)[C@H](C)NP(=O)(Oc1ccc(C[C@H](NC(=O)Cc2ccc(F)cc2)C(=O)NCc2cccc(NC(=O)CCl)c2)cc1)Oc1cccc2ccccc12 (some centres unmarked)	HiBiT-SOCS2 fusion in HeLa cells (Homo sapiens)	criterion met
C[C@H](NP(=O)(Oc1ccc(C[C@H](NC(=O)Cc2ccc(F)cc2)C(=O)NCc2cccc(NC(=O)CCl)c2)cc1)Oc1cccc2ccccc12)C(=O)OCc1ccccc1 (some centres unmarked)	HiBiT-SOCS2 fusion in HeLa cells (Homo sapiens)	criterion met

Please look at the following molecule next.
Ask: Does ΔT meet or surpass 2 oC for CC(C)(C)C(=O)OCOP(=O)(OCOC(=O)C(C)(C)C)Oc1ccc(C[C@H](NC(=O)Cc2ccc(F)cc2)C(=O)NCc2cccc(NC(=O)CCl)c2)cc1 ?
Reply: criterion met
